This listing pairs sequences with measured apparent KD of MS2 coat protein.
- System: MS2 coat protein
- protocol-text: apparent KD of MS2 coat protein; designed switch direction (-1 OFF switch, 1 ON switch): -1; higher = weaker reporter binding
- measurement-parameters: input ligand: FMN 200 uM
I only need the number, in nM, no unit after it.

These solved cases illustrate the format of a correct answer.
{"seq-string": "GGGCGGGCAGGAUAUACAUGAGGAUCACCCAUGUAUGUCCAAAGACAUACAUUCUUAUGUAGAAGGGCCCGCCC [Ex 4] (Eterna round: R97, puzzle: Exclusion 3)", "experimental-target": "MS2 coat protein", "numeric-value": 142}
{"seq-string": "UAUCGGGACUGAGGAUAUUCGUUCGAACACGAAGAAGAAGGUAGUGUCAGGGACAUGAGGAUCACCCAUGUGAUUUCAGUCCUA [JL ViennaUCT Erinle mod 3] (Eterna round: R96, puzzle: Exclusion NG 1)", "experimental-target": "MS2 coat protein", "numeric-value": 149}

Please look at the following sequence next.
Query (sequence): GUCAGCUCGUGAGGAUAUACAUGCGUGCUUCGGCACGAAUUUAAGAUCACAUGAGGAUCACCCAUGUAGAAGGUACGAGCUGAU [ENG2/3-C2] (Eterna round: R96, puzzle: Exclusion NG 2) ; field requested: apparent KD of MS2 coat protein
590

* * *

- Test system: MS2 coat protein
- protocol-text: apparent KD of MS2 coat protein; designed switch direction (-1 OFF switch, 1 ON switch): -1; higher = weaker reporter binding
- measurement-parameters: Eterna round: R95; input ligand: microRNA oligo, concentration not stated
Assign Satisfied whenever apparent KD of MS2 coat protein does not fall below 20 nM; assign Not satisfied whenever it does.

Worked set:
{"seq-string": "CCCGUGUUAGGAUAUACGGCACACCCGCCAGCGGGUAUAUAGUAGAAGGAACAUGAGGAUCACCCAUGUAUAGC [Sobiza] (puzzle: Exclusion 4)", "label": "Not satisfied"}
{"seq-string": "GCUGCGCGAGGAUAUGCGGUUUGUGCUUUGGGCCCUGGCGUACAUGAGGAUCACCCAUGUAGAAGGCGUGUGGG [Apr-15 SS2-51] (puzzle: Exclusion 2)", "label": "Satisfied"}
{"seq-string": "CUUUUGUGAGGAUAUCAGUAGUAAAUAAAUAAAAUUUCUACUGAGAAGGCACAUGAGGAUCACCCAUGUUCCUC [salish99_ex3_r3_085] (puzzle: Exclusion 4)", "label": "Satisfied"}
{"seq-string": "AGCAUGCUAGGAUAUACGGGACAUUAGGGUUCGUUGUAUGGACAUGAGGAUCACCCAUGUAGAAGGAGCGUGCA [Mat - Exclusion 2 - Mod of Hyphema - D94] (puzzle: Exclusion 2)", "label": "Satisfied"}
{"seq-string": "AGUACUAACACGAAAGUGUUAGUACAAUAAGCUUGUGAAACAUGAGGAUCACCCAUGUCCUCAUAAGCUCGUCUUAA [salish99_TOv2_r3_002] (puzzle: Sensor v3, turn-off variant 2)", "label": "Satisfied"}

Check if apparent KD of MS2 coat protein >= 20 nM (inclusive). Item: CGGGAGGGACAAGCUUUUUGCACGUCUGUUAUUGAUGCUACAUGAGGAUCACCCAUGUUUAGGGUGUGUGAGGAUGG [JR_SV3TOV2_Sub052] (puzzle: Sensor v3, turn-off variant 2)
Satisfied

In plain terms: is recorded apparent KD of MS2 coat protein at least 20 nM for AGUAACUAUCACGAAAGUGAUAGUUACAAACAAGUGAAAACAUGAGGAUCACCCAUGUCCUCAUUUGCUCGUCUUAU [Sensor 3 - 7] (puzzle: Sensor v3, turn-off variant 2) ?
Satisfied

Exam item: decide whether the reported apparent KD of MS2 coat protein for CUGAUGUCAGGAUAUCAGAAAAGGUGCGAGGACGCACCAAAUGAGAAGGGACAUGAGGAUCACCCAUGUAAAAC [Inbeenen] (puzzle: Exclusion 4) is at least 20 nM.
Not satisfied

Could you verify whether the entry UUGUACAUAGGAUAUAGUUGUUUGUACAUGAGGAUCACCCAUGUUAUGUAUGUUUUGUUUCUAGAAGGAUGUUGAU [JR_E5_Sub003] (puzzle: Exclusion 5) shows apparent KD of MS2 coat protein of no less than 20 nM?
Satisfied

API: above_or_equal(metric=apparent KD of MS2 coat protein, cutoff=20 nM) for item UUUUAACAUGAGGAUCACCCAUGUGAGGAUAUCGAAAUUUAUAUUAAUAUUAAUAAUUCGAGAAGGCACAUUUU [JMF 21] (puzzle: Exclusion 1)
Satisfied

Textbook exercise: given the entry UCGGCGCGAGGAUAUACGUUUGCUUUUUUUUGUCUUUGUGUACAUGAGGAUCACCCAUGUAGAAGGCGCGCCGC [Apr-15 SS2-22] (puzzle: Exclusion 2) , state whether its apparent KD of MS2 coat protein is greater than or equal to 20 nM.
Not satisfied

* * *

- Tested on: MS2 coat protein
- protocol-text: apparent KD of MS2 coat protein; higher = weaker reporter binding
- measurement-parameters: Eterna round: R107; input ligand: theophylline 20 uM
The threshold is inclusive: apparent KD of MS2 coat protein of exactly 0.06 µM counts as TRUE; values below receive FALSE.

{"seq-string": "ACAUGAGGAUCACCCAUGUGUCCUCGAAAACGAGGACCGGUACGGCCGCCACUCGAAAUAAGCGACAAGCGAAAAGCUUGUCGCA [Mat - Exclusion - Trytophan A - D22]", "label": "TRUE"}
{"seq-string": "GUAAAGUAAAGAAGGAGCGUCGAAAAUGGGUAAACAUGAGGAUCACCCAUGUAAAGGGAACGACAGGUAGGUCGCUUUAUUUUAC [AstromonsSSArgB#17]", "label": "TRUE"}
{"seq-string": "GGAUAGGACAGAAGGAGCGGCAUGGCAGAAACUGCAAUCCUCCUACACGAGGAUCACCCGUGUCAGGUAGGUCGCUGUCCUAUCG [ArgXB 13 #Zipper #MS2Left #StaticStem #Blueprint]", "label": "FALSE"}
{"seq-string": "AGAUUCGACACGGCCGCCACUUGUGGUGGAUUAUCCAGUGUCGAACAUGAGGAUCACCCAUGUACAAGGACCGGGUGUUGAGUCU [XTryp B #19]", "label": "TRUE"}
{"seq-string": "GACAUGAGGAUCACCCAUGUACCGCGAGAAGGAGCGCGGAUAAACGCAGGUAGGUCGCUCGUGGGCUUUUAUUCAAUCGAAAGCU [Zaesar]", "label": "TRUE"}

Form field: apparent KD of MS2 coat protein at least 0.06 µM? Entry: UUAGUAACGACGGCCGCCACUGAAUUUGAACAUGAGGAUCACCCAUGUAGAGAUCCUAGAAUAAACAGGACCGGGUCUGAUAAUG [Exclusion Tryptophane B GF3]
TRUE

Reported apparent KD of MS2 coat protein reaches at least 0.06 µM for GCUAGGUCUACGGCCGCCACUAGACGUGGGUAAGACAUGAGGAUCACCCAUGUACUACAGGCGAAUAGGACCGGGUAGACCUAGC [SSTB NP+V+V2 #12 Same Structure] ?
FALSE

apparent KD of MS2 coat protein >= 0.06 µM for AAAAUCCUCCAUGAGGAUCACCCAUGGGAAGGAGCGCCCGAAAGGGCAGGUAGGUCGCCCAUGAGGAUCACCCAUGGAACCUAAA [ArgAX 26 #DoubleMS2 #OpenEnded #AlternativeMS2] ?
TRUE

Can UGAUUGAACGGAAGGAGCGUGUAAGAACAAGAACAUGAGGAUCACCCAUGUAUUAAUUUAACACAGGUAGGUCGCCGAGAGAUUG [11.D] be said to have apparent KD of MS2 coat protein at or above 0.06 µM?
FALSE

Check this sequence for apparent KD of MS2 coat protein at or above 0.06 µM: UGUAUGUGAUCUGAUACCAGCGUUGAUAACCUGAGGAUCACCCUGGUAAAGGCGAAAGCCCGCCCUUGGCAGCAGAUCGCAUACU
TRUE

API: above_or_equal(metric=apparent KD of MS2 coat protein, cutoff=0.06 µM) for item UGGUGUAGGGUAAAUAGGAUUAGUACAGAAGGAGCGCGAAUAAACGCAGGUAGGUCGCUGGAAUAAACAUGAGGAUCACCCAUGU [Same State Arginine A GF 27]
FALSE

* * *

- System: MS2 coat protein
- protocol-text: apparent KD of MS2 coat protein; designed switch direction (-1 OFF switch, 1 ON switch): -1; higher = weaker reporter binding
- measurement-parameters: input ligand: FMN 200 uM
A collection of sequences and their measured apparent KD of MS2 coat protein
The reply should be a number in µM, with the unit left off.

{"seq-string": "UGUUGUUCAGGAUAUGAAGUAUAUUACAUGAGGAUCACCCAUGUAGAUCCUGAAUAUACAUCAGAAGGGAAUAUUU [JR_Ex5_Sub057] (Eterna round: R97, puzzle: Exclusion 5)", "endpoint-unit": "µM", "apparent KD of MS2 coat protein": 0.051}

// lookup apparent KD of MS2 coat protein for AGCGCAUGAGGAUAUACAUGAGGAUCACCCAUGUUCCAGUGAGCACUAGUGAGAGUCAGUAGAAGGUAUAGGGC [Cecete] (Eterna round: R97, puzzle: Exclusion 3)
0.151

Name the recorded apparent KD of MS2 coat protein for CCGCUGUGAGGAUAUUAGUAGUAGUCAGAAAAGACUAUUACUGAGAAGGCACAUGAGGAUCACCCAUGUUGCGG [Mat - Exclusion 4 - Eli Mod - D48] (Eterna round: R97, puzzle: Exclusion 4) .
0.0339

GET /values?readout=apparent KD of MS2 coat protein&item= UUGACGGCAGGAUAUACAUGAGGAUCACCCAUGUAAAUUUUUCGUUUAACUUGAAUGUGUAGAAGGGCCAAACC [Ex3 #77] (Eterna round: R97, puzzle: Exclusion 3)
0.0194

Can you look up the measured apparent KD of MS2 coat protein of CAGACCCGCCUUGGUCACAUGAGGAUCACCCAUGUUUAGGUCUAGGAUAUGGCCGUCGAGGACGGCCAGAAGGAGAAUAUCAUG [Eternabot solution 34] (Eterna round: R96, puzzle: Exclusion NG 3) for me?
0.102

Find the recorded apparent KD of MS2 coat protein belonging to UUCGAGGCAGGAUAUGCGUAGCCACGGAGGAUCACCAAGUAACAUGAGGAUCACCCAUGUAGAAGGGCUAGAGC [Eternabot (L1) Solution 26] (Eterna round: R97, puzzle: Exclusion 2) and report it.
0.0601

Which apparent KD of MS2 coat protein value belongs to CCUUGUGUUGAGGAUAUGCGCCGGCUCGCUGGCGCAGAAGGCGGCACAUGAGGAUCACCCAUGUCAGUUCGCGU [salish99_ex6_r004_014] (Eterna round: R97, puzzle: Exclusion 6) ?
0.431

Fill in: apparent KD of MS2 coat protein of AGCCCUGCAGGAUAUGCCCGGGAUAACAUGAGGAUCACCCAUGUGACCGAUUGUUAUCCUGCAGAAGGGCUAGGGA [JL-EX5-4.11 ViennaUCT mod] (Eterna round: R97, puzzle: Exclusion 5) is ___
0.126

For the sequence GCGUAGUAUGUAGGAUAUCGGUCAGUUUCUGAUCGAGAAGGACAUGAGGAUCACCCAUGUAAAUUGCCCGCUUUGUGGGUACGC [JL ENG1 3.60] (Eterna round: R96, puzzle: Exclusion NG 1) , what apparent KD of MS2 coat protein is on record?
0.0593

So what's the measured apparent KD of MS2 coat protein for this one? CUGAGUCUAGGAUAUACAUGAGGAUCACCCAUGUAAAGUAGCUUGCGUACAGGCAGAUGUAGAAGGAGAUUCGG [Mod of JL 10 - Jieux - Exclusion 3] (Eterna round: R97, puzzle: Exclusion 3)
0.0332

What value of apparent KD of MS2 coat protein has been recorded for this entry: UAUUAUCAAGCAAGAUCCCACAUGAGGAUCACCCAUGUGCUCGUCUUAUUUCUGUCCUUAUUGUUCUCUCGUCUAAU [JR_STOV1_v2_Sub096] (Eterna round: R97, puzzle: Sensor, turn-off variant 1)
0.0418

Name the reported apparent KD of MS2 coat protein value associated with the sequence AGAUCUAGGACAGGAUAUACGGAUGUCUUCAUCGAAGAUGAAGACAUCACAUGAGGAUCACCCAUGUAGAAGGGUCCUAGAUCA [Omei Exc(NG) 2A] (Eterna round: R96, puzzle: Exclusion NG 2)
0.0123

What apparent KD of MS2 coat protein value was documented for this sequence, UUCGUGCAGCUUUGCUGUACGCGUACAUGAGGAUCACCCAUGUAGGAUAUGGUAGGCAAAGCUUACUAGAAGGAUAGAGUGAUC [Mat - Exclusion NG 3 - Mod of JL - D74] (Eterna round: R96, puzzle: Exclusion NG 3) ?
0.277

What does the data say about its apparent KD of MS2 coat protein? Entry: AGUACUAACACGAGAGUGUUAGUACAAUAAGCUUGUGAAACAUGAGGAUCACCCAUGUCCUCAUAAGCUCGUCUUAU [salish99_TOv2_r3_029] (Eterna round: R96, puzzle: Sensor v3, turn-off variant 2)
0.0153

Would you kindly share the measured apparent KD of MS2 coat protein for UCGCUCCGUGUAGGAUAUCGUUGUACCCUGCGGCGAGAAGGACAUGAGGAUCACCCAUGUAUGUUAUUAUCACGCGUGGCGCAA [Design 69] (Eterna round: R96, puzzle: Exclusion NG 1) ?
0.0159

Which apparent KD of MS2 coat protein value belongs to UGUAUUAUAGGAUAUCACAACCUGGACAUGAGGAUCACCCAUGUGGUUGCAUGCUGUCGAUGAGAAGGAUAGGGCG [Eternabot (L1) Solution 43] (Eterna round: R97, puzzle: Exclusion 5) ?
0.0228

Which apparent KD of MS2 coat protein value is on record for UUAGUAUAGCAAGGAUAUGUUUAUGUAUAGUUGCCUCUUACAUGAGGAUCACCCAUGUUUAACUUACAGAAGGUGCAAUGAUUU [JR_ExcNG2_Sub033] (Eterna round: R96, puzzle: Exclusion NG 2) ?
0.279

Report apparent KD of MS2 coat protein for CAAUAGGGAGGAUAUCCAAUAUAUGACAUGAGGAUCACCCAUGUUUCCACUCGUACCUCCGGAGAAGGCCCAUAAG [Ex5 #6] (Eterna round: R97, puzzle: Exclusion 5) please.
0.0213

Ref: the supplement of paper PMC9170038
